studyTarget: BSA (Bos taurus, UniProt P02769)
Construct: purchased Himedia Chemicals
Sequence (P02769 25-607): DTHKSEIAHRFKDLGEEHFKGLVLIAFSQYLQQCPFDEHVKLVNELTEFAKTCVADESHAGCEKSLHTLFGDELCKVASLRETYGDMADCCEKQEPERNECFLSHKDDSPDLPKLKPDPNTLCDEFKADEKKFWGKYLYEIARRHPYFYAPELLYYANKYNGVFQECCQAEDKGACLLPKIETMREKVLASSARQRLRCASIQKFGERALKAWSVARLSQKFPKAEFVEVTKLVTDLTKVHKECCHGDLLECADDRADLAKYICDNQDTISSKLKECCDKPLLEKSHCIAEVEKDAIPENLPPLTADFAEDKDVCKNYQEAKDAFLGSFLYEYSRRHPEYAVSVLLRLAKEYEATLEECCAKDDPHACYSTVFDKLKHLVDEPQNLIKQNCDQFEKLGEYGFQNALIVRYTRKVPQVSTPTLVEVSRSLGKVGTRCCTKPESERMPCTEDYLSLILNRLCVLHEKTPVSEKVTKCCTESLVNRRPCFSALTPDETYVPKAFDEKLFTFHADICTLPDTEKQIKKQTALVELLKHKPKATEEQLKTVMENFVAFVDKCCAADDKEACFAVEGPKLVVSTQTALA
testMethodNotes: BSA fluorescence quenching titration
Type: binding, bovine
conditionNotes: τ0 = 1 × 10^−8
measuredQuantity: Kq, quenching rate constant (M⁻¹ s⁻¹)

# annotated cases, reported Kq, quenching rate constant shown
>>> result("COc1cccc(C=NN=C([O-])c2ccncc2)c1[O-].COc1cccc(C=NN=C([O-])c2ccncc2)c1[O-].[Ti+4]")
"2.77e+13"
>>> result("[O-]C(=NN=Cc1cc(F)ccc1[O-])c1ccncc1.[O-]C(=NN=Cc1cc(F)ccc1[O-])c1ccncc1.[Ti+4]")
"1.97e+13"
>>> result("Brc1ccc2c(c1)C=NN=C(c1ccncc1)[O][Ti]1([O]C(c3ccncc3)=NN=Cc3cc(Br)ccc3[O]1)[O]2 (stereo not drawn)")
"8.5e+12"
>>> result("[O-]C(=NN=Cc1c([O-])ccc2ccccc12)c1ccncc1.[O-]C(=NN=Cc1c([O-])ccc2ccccc12)c1ccncc1.[Ti+4]")
"1.05e+13"

a: [O-]C(=NN=Cc1cc(Cl)ccc1[O-])c1ccncc1.[O-]C(=NN=Cc1cc(Cl)ccc1[O-])c1ccncc1.[Ti+4]
b: [O-]C(=NN=Cc1ccccc1[O-])c1ccncc1.[O-]C(=NN=Cc1ccccc1[O-])c1ccncc1.[Ti+4]
# query: argmin of Kq, quenching rate constant over a and b Give the chosen item's label as your response.
a
(a: 1.12e+13 M⁻¹ s⁻¹, b: 1.75e+13 M⁻¹ s⁻¹)
